- measured.on: human HDAC1 (Homo sapiens)
- Construct: FLAG; made in house; host or cells: 293T cells (transient transfection, anti-FLAG immunoprecipitation, FLAG peptide elution)
- Sequence (Q13547 whole entry): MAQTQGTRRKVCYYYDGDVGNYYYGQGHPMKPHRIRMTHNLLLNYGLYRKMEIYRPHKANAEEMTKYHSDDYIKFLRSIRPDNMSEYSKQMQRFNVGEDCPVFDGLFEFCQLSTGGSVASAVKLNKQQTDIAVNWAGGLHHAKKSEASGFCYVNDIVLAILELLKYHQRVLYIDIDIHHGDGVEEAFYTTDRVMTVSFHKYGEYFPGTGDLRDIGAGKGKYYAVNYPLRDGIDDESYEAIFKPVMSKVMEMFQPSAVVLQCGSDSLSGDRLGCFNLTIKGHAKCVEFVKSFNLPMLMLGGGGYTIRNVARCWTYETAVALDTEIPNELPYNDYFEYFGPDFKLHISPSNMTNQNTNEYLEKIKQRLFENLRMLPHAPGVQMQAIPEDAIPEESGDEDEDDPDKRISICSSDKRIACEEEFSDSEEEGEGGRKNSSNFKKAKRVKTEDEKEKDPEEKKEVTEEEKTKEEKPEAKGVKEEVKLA
- assay.procedure: In vitro HDAC inhibition activity, [3H]-acetylated histone substrate, HDAC1
- Assay type: biochemical
- condition.notes: Table 1; X = H (coexisting with DTT)
Where a SMILES comes first, the peptide text is derived from it. [ ]: non-standard residue; d: D form. Gly((CH2)5SH) = N[C@@H](CCCCCS)C(=O)O; dPip = O=C(O)[C@H]1CCCCN1

compound	unit.string	IC50
CC[C@H](C)[C@@H]1NC(=O)[C@@H](Cc2ccc(OC)cc2)NC(=O)[C@H](CCCCCS)NC(=O)[C@H]2CCCCN2C1=O [SCOP 150] (cyclo([Gly((CH2)5SH)][dY](Me)I[dPip]))	nM	2.1
CC[C@H](C)[C@@H]1NC(=O)[C@@H](Cc2ccc(OC)cc2)NC(=O)[C@H](CCCCCCS)NC(=O)[C@H]2CCCN2C1=O [SCOP 153]	nM	9.13
CC[C@H](C)[C@@H]1NC(=O)[C@@H](Cc2ccc(OC)cc2)NC(=O)[C@H](CCCCCCCS)NC(=O)[C@H]2CCCN2C1=O [SCOP 154]	nM	38.1

* * *

Property: IC50; scope: individual compounds
- measured.on: mouse HDAC6 (Mus musculus, UniProt Q9Z2V5)
- Construct: HA; made in house; host or cells: 293T cells (transient transfection, anti-HA immunoprecipitation, HA peptide elution)
- Sequence (Q9Z2V5 whole entry): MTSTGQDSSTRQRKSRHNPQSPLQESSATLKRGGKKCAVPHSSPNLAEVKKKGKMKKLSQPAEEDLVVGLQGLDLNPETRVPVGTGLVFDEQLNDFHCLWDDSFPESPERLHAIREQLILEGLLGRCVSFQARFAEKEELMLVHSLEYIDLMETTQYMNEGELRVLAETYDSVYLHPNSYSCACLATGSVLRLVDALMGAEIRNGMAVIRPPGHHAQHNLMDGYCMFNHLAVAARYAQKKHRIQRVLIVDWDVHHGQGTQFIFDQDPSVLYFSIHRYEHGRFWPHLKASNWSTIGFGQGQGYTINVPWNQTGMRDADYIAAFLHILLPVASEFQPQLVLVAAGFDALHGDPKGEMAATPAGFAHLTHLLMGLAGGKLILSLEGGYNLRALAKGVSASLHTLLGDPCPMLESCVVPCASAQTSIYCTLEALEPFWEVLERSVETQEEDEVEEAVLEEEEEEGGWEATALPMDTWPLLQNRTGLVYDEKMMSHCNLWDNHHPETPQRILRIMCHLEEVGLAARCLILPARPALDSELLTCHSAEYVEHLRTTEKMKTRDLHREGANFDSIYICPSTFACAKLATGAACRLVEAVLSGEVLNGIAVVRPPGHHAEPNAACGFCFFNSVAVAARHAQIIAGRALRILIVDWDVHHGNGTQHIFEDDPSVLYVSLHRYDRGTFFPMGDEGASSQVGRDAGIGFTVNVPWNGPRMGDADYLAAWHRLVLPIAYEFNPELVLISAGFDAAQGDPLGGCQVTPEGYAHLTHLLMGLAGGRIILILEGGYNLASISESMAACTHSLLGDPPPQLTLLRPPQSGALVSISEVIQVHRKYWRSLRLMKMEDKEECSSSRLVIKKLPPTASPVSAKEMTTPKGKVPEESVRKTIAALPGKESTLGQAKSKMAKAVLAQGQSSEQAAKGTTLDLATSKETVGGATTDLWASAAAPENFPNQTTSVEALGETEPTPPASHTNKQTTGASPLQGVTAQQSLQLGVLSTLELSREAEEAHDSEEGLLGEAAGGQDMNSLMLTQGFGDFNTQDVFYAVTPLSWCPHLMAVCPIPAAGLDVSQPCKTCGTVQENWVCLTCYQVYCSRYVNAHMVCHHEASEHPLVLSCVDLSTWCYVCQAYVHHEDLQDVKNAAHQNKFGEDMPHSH
- assay.procedure: In vitro HDAC inhibition activity, [3H]-acetylated histone substrate, HDAC6
- Type: biochemical
- condition.notes: Table 1; X = H (coexisting with DTT)
Where a SMILES comes first, the peptide text is derived from it. [ ]: non-standard residue; d: D form. Gly((CH2)5SH) = N[C@@H](CCCCCS)C(=O)O; Pip = O=C(O)[C@@H]1CCCCN1; dPip = O=C(O)[C@H]1CCCCN1
recorded.metric: IC50

compound	experimental.result
CC[C@H](C)[C@@H]1NC(=O)[C@@H](Cc2ccc(OC)cc2)NC(=O)[C@H](CCCCCS)NC(=O)[C@H]2CCCCN2C1=O [SCOP 150] (cyclo([Gly((CH2)5SH)][dY](Me)I[dPip]))	5560 nM
CC[C@H](C)[C@@H]1NC(=O)[C@@H](Cc2ccc(OC)cc2)NC(=O)[C@H](CCCCCS)NC(=O)[C@@H]2CCCN2C1=O [SCOP 148] (cyclo([Gly((CH2)5SH)][dY](Me)IP))	> 500000 nM
CC[C@H](C)[C@@H]1NC(=O)[C@@H](Cc2ccc(OC)cc2)NC(=O)[C@H](CCCCCS)NC(=O)[C@@H]2CCCCN2C1=O [SCOP 149] (cyclo([Gly((CH2)5SH)][dY](Me)I[Pip]))	44300 nM
CC[C@H](C)[C@@H]1NC(=O)[C@@H](Cc2ccc(OC)cc2)NC(=O)[C@H](CCCCCCS)NC(=O)[C@H]2CCCN2C1=O	8050 nM

* * *

Property: IC50; scope: individual compounds
- measured.on: mouse HDAC6 (Mus musculus)
- Construct: HA; made in house; host or cells: 293T cells (transient transfection, anti-HA immunoprecipitation, HA peptide elution)
- assay.procedure: In vitro HDAC inhibition activity, [3H]-acetylated histone substrate, HDAC6
- Format: biochemical
- condition.notes: Table 2; homodimer
*1 amine or outer side, *2 acyl side, *3 side chain or, on linkers, in order; H or OH if unused. Where a SMILES comes first, the peptide text is derived from it. Bridges are numbered along the chain shown (N, C = ends). Roman numbers before positions name the chains, in order. [ ]: non-standard residue; d: D form. hNle(7-SH) = O=C([C@H](CCCCCS[*:3])N[*:1])[*:2]

compound	measured.on	IC50
CC[C@H](C)[C@@H]1NC(=O)[C@@H](Cc2ccc(OC)cc2)NC(=O)[C@H](CCCCCSSCCCCC[C@@H]2NC(=O)[C@@H]3CCCN3C(=O)[C@H]([C@@H](C)CC)NC(=O)[C@@H](Cc3ccc(OC)cc3)NC2=O)NC(=O)[C@@H]2CCCN2C1=O [SCOP 296, cyclo(-L-Am7(-)-D-Tyr(Me)-L-Ile-L-Pro-)] (I: cyclo([hNle(7-SH)][dY](Me)IP) / II: cyclo([hNle(7-SH)][dY](Me)IP); disulfide I:1-II:1)	mouse HDAC6 (Mus musculus)	> 500000 nM
CC[C@H](C)[C@@H]1NC(=O)[C@@H](Cc2ccc(OC)cc2)NC(=O)[C@H](CCCCCSSCCCCC[C@@H]2NC(=O)[C@H]3CCCN3C(=O)[C@H]([C@@H](C)CC)NC(=O)[C@@H](Cc3ccc(OC)cc3)NC2=O)NC(=O)[C@H]2CCCN2C1=O [SCOP 304, cyclo(-L-Am7(-)-D-Tyr(Me)-L-Ile-D-Pro-)] (I: cyclo([hNle(7-SH)][dY](Me)I[dP]) / II: cyclo([hNle(7-SH)][dY](Me)I[dP]); disulfide I:1-II:1)	mouse HDAC6 (Mus musculus)	> 500000 nM
CC[C@H](C)[C@@H]1NC(=O)[C@@H](Cc2ccc(OC)cc2)NC(=O)[C@H](CCCCSSCCCC[C@@H]2NC(=O)[C@H]3CCCN3C(=O)[C@H]([C@@H](C)CC)NC(=O)[C@@H](Cc3ccc(OC)cc3)NC2=O)NC(=O)[C@H]2CCCN2C1=O [SCOP 302, cyclo(-L-Am6(-)-D-Tyr(Me)-L-Ile-D-Pro-]	mouse HDAC6 (Mus musculus)	> 500000 nM

Source of measurements: patent US7488712B2
